The reported numbers originate from patent US11166944B2.

Tested on: (TSC2−/−, p53−/−) MEF line
Experiment: 10-point dose response viability (CellTiter-Glo, 72 hours)
Assay type: cell-based
Details: Mus musculus, average of two experiments
measuredQuantity: pIC50
Numbers only, as −log10 of the molar value.

Consider the compound Cc1cccc(/C=N/Nc2cc(N3CCOCC3)nc(OCCc3ccccn3)n2)c1 [apilimod] . State its measured pIC50. 7.54

###

System: ELT3-EV cells
Assay: 10-point dose response viability (CellTiter-Glo, 72 hours)
Assay type: cell-based
Conditions: Rattus norvegicus, average of two experiments, read-out: IC50 TSC2−/− (viability)
measuredQuantity: IC50 (nM)
Give bare numbers, in nM.

Output reported IC50 of the compound Cc1cccc(/C=N/Nc2cc(N3CCOCC3)nc(OCCc3ccccn3)n2)c1 [apilimod] on ELT3-EV cells. 13.7

###

Test system: TRI-AML102 (TSC2 null AML) cells
Experiment: 10-point dose response viability (CellTiter-Glo, 72 hours)
Type: cell-based
Conditions: Homo sapiens; AML column; average of two experiments
measuredQuantity: pIC50
One number for each entry, as −log10 of the molar value.

# return recorded pIC50 for entry Cc1cccc(/C=N/Nc2cc(N3CCOCC3)nc(OCCc3ccccn3)n2)c1 6.93
